- tested on: Phosphatidylinositol 3-kinase regulatory subunit alpha/4,5-bisphosphate 3-kinase catalytic subunit delta isoform (Homo sapiens, UniProt P27986+O00329)
- Sequence (P27986 whole entry, canonical isoform): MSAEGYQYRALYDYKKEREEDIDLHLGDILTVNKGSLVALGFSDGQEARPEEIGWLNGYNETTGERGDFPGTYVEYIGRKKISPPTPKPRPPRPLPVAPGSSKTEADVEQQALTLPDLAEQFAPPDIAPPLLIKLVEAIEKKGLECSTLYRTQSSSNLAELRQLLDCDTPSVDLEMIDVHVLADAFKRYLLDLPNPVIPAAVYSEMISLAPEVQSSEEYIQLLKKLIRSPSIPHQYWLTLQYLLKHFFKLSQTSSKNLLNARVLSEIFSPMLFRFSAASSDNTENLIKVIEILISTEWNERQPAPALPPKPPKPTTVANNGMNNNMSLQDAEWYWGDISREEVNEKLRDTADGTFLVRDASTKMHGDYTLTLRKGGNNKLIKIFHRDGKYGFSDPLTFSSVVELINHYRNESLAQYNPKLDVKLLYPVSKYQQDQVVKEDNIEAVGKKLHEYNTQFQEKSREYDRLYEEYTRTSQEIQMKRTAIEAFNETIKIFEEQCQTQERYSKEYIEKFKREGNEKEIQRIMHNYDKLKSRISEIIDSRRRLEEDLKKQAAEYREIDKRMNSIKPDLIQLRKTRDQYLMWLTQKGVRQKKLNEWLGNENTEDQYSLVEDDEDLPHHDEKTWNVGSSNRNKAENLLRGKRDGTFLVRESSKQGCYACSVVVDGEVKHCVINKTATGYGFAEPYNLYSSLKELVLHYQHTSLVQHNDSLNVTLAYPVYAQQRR
- Sequence (O00329 whole entry, canonical isoform): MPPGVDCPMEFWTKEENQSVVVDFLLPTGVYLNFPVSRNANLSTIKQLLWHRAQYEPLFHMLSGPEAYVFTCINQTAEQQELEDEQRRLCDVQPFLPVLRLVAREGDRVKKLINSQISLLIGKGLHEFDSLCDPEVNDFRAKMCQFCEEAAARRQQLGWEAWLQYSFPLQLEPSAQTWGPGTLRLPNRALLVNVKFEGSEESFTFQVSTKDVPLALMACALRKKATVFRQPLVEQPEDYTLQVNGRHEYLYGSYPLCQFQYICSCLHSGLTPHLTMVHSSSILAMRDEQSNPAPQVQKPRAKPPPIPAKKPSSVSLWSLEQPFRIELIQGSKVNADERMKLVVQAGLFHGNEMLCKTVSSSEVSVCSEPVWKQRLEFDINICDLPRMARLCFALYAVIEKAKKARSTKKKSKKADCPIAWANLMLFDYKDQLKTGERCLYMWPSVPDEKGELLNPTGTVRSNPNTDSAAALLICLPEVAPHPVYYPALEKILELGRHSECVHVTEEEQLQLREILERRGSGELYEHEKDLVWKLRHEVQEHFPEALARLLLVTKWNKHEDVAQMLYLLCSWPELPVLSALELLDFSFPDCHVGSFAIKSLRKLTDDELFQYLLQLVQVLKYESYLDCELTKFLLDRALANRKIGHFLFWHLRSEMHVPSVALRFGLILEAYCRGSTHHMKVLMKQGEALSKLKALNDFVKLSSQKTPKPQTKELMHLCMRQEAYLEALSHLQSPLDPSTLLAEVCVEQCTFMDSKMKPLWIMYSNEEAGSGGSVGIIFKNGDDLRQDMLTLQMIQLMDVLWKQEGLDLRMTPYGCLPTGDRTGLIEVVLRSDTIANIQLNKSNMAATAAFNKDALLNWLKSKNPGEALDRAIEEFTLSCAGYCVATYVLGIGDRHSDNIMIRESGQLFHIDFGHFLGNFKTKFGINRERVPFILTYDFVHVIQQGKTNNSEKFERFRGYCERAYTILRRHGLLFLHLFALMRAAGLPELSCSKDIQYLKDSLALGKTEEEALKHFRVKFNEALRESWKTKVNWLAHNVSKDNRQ
- assay protocol: Inhibition of human full length PI3K p110delta/p85alpha using phosphatidylinositol […] as substrate measured after 30 mins by TR-FRET assay
measurement name: pIC50
A value of pIC50 is the negative decimal logarithm of a concentration given in moles per litre.

Challenge: I'd like to know its pIC50. The compound in question is C[C@H](Nc1nc(N)nc(N)c1C#N)c1nc2cccc(Cl)c2c(=O)n1-c1cncc(Cl)c1 [US9221795, 13]
Response given: 8.10

Challenge: Now this one: C[C@H](Nc1nc(N)nc(N)c1C#N)c1nc2c(Cl)cccc2c(=O)n1-c1cccnc1 [US9221795, 22]
Response given: 8.22

Challenge: Now this one: Cc1ccncc1-n1c([C@H](C)Nc2nc(N)nc(N)c2C#N)nc2cccc(Cl)c2c1=O [US9221795, 40]
Response given: 9.40
